target system: T1, human PD-1 expressed on cells (human, UniProt Q15116 25-288)
T1 construct: whole, on cells; cell line named under assay; also called CHO-S hPD-1; Raji PD-1
T1 sequence (Q15116 25-288): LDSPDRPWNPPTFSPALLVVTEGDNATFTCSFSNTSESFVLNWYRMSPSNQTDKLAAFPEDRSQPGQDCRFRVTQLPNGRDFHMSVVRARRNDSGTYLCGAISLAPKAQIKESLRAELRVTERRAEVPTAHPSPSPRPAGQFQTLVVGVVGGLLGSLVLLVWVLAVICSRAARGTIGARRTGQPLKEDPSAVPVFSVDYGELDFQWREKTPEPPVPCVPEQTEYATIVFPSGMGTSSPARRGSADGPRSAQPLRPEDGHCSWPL
experiment summary: flow cytometry, HEK293 huPD1
property name: pEC50
pEC50 here is simply -log10 of the concentration when that concentration is written in mol/L.

Challenge: Could you tell me which pEC50 is on file for 40B20 (antibody, V domains shown, used with CH1,2,3 and corresponding CL) VH: EVQLVESGGGLVQPGGSLRLSCAASGFTFSSYSMNWVRQAPGKGLQWVSYITSSSNTMYYADSVKGRFTISRDNAKNSLYLQMNSLRDEDTAVYYCASIVGAPFDYWGQGTLVTVSS VL: EIVMTQSPATLSVSPGERATLSCRASQSVSSSLAWYQQKPGQAPRLLIYGASTRATGIPARFSGSGSGTEFTLTISSLQSEDFAAYYCQQYNNWPFTFGPGTKVDIK ?
Response given: 9.79

Challenge: Need pEC50, item 56H02 (antibody, V domains shown, used with CH1,2,3 and corresponding CL) VH: QVQLVQSGAEVKKPGASVKVSCKASGYTFTSYFMHWVRQAPGQGLEWMGLINPDGGNTDYAQKFQGRVTMTRDTSTSTVYMELSSLRSEDTAVYYCARDGNYYDSSGYYYPDAFDIWGQGTMVTVSS VL: SSELTQDPAVSVALGQTVRITCQGDSLRRFYASWYQQKPGQAPVIVIYGKDNRPSGTPDRFSGSTSGNTASLTITGAQAEDEADYYCNSRDSSGTHVVFGGGTKLTVL
Response given: 10.04

Challenge: Which pEC50 is listed for 39F23 (antibody, V domains shown, used with CH1,2,3 and corresponding CL) VH: QVQLVESGGGVGQPGRSLRLSCAASGFTFSNYGMHWVRQAPGKGLEWVAVIWYDGSKKYYADSVKGRFTISRDNSKNTLYLQMNSLRVEDTAVYYCVGNSGHWGQGTLVTVSS VL: DIVMTQTPLSLPVTPGEPASISCRSSQSLLDSDDGNTYLDWYLQKPGQSPQLLIYTLSYRASGVPDRFSGSGSGTDFTLKISRVEAEDVGVYYCMQCIEFPHTFGGGTKVEIK ?
Response given: 10.72

Challenge: Requested read-out: pEC50. Entry: 20H02 (antibody, V domains shown, used with CH1,2,3 and corresponding CL) VH: EVLLVESGGGLVQPGGSLRLSCAASGFTFSSYSMNWVRQAPGKGLEWVSFISSSSPTLYYADSVKGRFTISRDNAKNSLYLQMNSLRDEDTAVYYCARQGLTPFDYWGQGTLVTVSS VL: EIVMTQSPATLSVFPGERATLSCRASQSVSSYLAWYQQKPGQAPRLLIYGASTRATGIPARVSGSGSGTEFILTISSLQSEDFAVYYCQQYNNWPYTFGQGTKLEIK
Response given: 9.30
